Entry source: patent US11274090B2

- Assayed system: p300 HAT domain (residues 1287-1666) (Homo sapiens (Human))
- Sequence (Q09472 1287-1666): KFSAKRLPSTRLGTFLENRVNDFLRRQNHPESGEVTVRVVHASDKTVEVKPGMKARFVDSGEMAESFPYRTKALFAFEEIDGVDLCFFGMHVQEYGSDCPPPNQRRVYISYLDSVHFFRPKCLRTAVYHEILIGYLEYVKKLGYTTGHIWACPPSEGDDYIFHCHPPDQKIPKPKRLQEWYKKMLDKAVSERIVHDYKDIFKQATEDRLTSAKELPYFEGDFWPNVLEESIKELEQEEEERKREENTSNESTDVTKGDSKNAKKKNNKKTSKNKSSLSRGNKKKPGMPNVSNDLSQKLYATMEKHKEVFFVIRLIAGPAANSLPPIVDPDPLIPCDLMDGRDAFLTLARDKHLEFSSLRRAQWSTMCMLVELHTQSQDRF
pIC50: −log10 of the molar value.
Please note: 1 applies when pIC50 is 7 or greater, and 0 applies otherwise.

[[record]]
compound = "Cc1ncc(-c2ccc(NC(=O)[C@H](NC[C@H](C)c3ccc(C#N)cc3)c3ccccc3)nc2)cn1 (single isomer, unassigned; isomer 4) [6 Isomer 4]"
class_label = 1

[[record]]
compound = "C[C@H](CNC(C(=O)Nc1ccc(-c2ccn(C)c(=O)c2)cn1)c1ccccc1)c1ccc(C#N)cc1 (single isomer, unassigned) [105 Isomer 1]"
class_label = 0

[[record]]
compound = "N#Cc1ccc(CCNC(C(=O)Nc2ccc(N3CCC(F)(F)CC3)cn2)c2ccccc2)cc1 (single isomer, unassigned) [38 Isomer 1]"
class_label = 0

[[record]]
compound = "Cn1cc(-c2ccc(NC(=O)C(NCCc3ccc(C#N)cc3)c3ccccc3)cc2Cl)cn1 (single isomer, unassigned) [27 Isomer 2]"
class_label = 0

[[record]]
compound = "Cn1cc(-c2ccc(NC(=O)C(NCCc3ccc(C#N)cc3)c3cccc(C#N)c3)nc2)cn1 (single isomer, unassigned) [116 Isomer 1]"
class_label = 0

[[record]]
compound = "CN1CCN(c2ccc(NC(=O)C(NCCc3ccc(Cl)cc3)c3ccccc3)nc2)CC1=O (single isomer, unassigned) [45 Isomer 1]"
class_label = 1

[[record]]
compound = "CN1CCN(c2ccc(NC(=O)C(NCCc3ccc(C#N)cc3)c3ccccc3)nc2)CCC1=O (single isomer, unassigned) [71 Isomer 2]"
class_label = 0

[[record]]
compound = "C[C@H](CNC(C(=O)Nc1ccc(C2CC(=O)N(C)C2)cn1)c1ccccc1)c1ccc(C#N)cc1 (single isomer, unassigned) [109 Isomer 2]"
class_label = 0

